Reported pest or weed control at 40 ppm is given for each of the following compounds.
- Test system: Rhizoctonia oryzae
- methodNotes: Test G: turf brown patch, preventive spray on creeping bent grass seedlings
- studyConditions: Waitea circinata, in Agrostis stolonifera, topical, 144 h, read-out: Test G disease control rating, 40 ppm (*)

{"columns": ["compound", "pest or weed control at 40 ppm, %"],
 "data": [
  ["O=c1c(-n2cccn2)nc(Cl)c(-c2c(F)cccc2F)n1-c1ccccc1", 68],
  ["Cc1nc(-n2cccn2)c(=O)n(CC(C)C)c1-c1c(F)cccc1F", 99],
  ["CC[C@H](C)Cn1c(-c2c(F)cc(F)cc2F)c(Cl)nc(-n2cccn2)c1=O", 100],
  ["CCC(C)Cn1c(-c2ccc(F)cc2Cl)c(Cl)nc(-n2ccc(C)n2)c1=O (stereo not shown)", 26]
]}

* * *

- Test system: Puccinia recondita f. sp. tritici
- methodNotes: Test K: wheat leaf rust, preventive spray on wheat seedlings
- studyConditions: 200 ppm
Quick list: Test K disease control rating per entry.
readout: Test K disease control rating (%)

{"columns": ["compound", "readout", "quantitativeReadout"],
 "data": [
  ["CC(C)Cn1c(-c2c(F)cccc2F)c(Cl)nc(-c2cnn(C)c2)c1=O [compound 100]", "Test K disease control rating", 26],
  ["CCCn1c(-c2c(F)cccc2F)c(Cl)nc(-n2cncn2)c1=O [compound 34]", "Test K disease control rating", 99],
  ["CCC(C)Cn1c(-c2ccc(F)cc2Cl)c(Cl)nc(-n2cccn2)c1=O (centres unmarked) [compound 164]", "Test K disease control rating", 100],
  ["O=c1c(-n2cccn2)nc(Cl)c(-c2c(F)cccc2F)n1CC1CC1 [compound 18]", "Test K disease control rating", 100],
  ["CC(C)Cn1c(-c2ccc(F)cc2Cl)c(Cl)nc(-n2cncn2)c1=O [compound 51]", "Test K disease control rating", 100]
]}

* * *

- Tested on: Septoria nodorum
- methodNotes: Test H: wheat glum blotch, preventive spray on wheat seedlings
- studyConditions: 40 ppm (marked *); 100 = 100% disease control, 0 = no control
Marks after values point to notes of the source that are not given here.
// Test H disease control rating lookup, one value per entry

{"columns": ["molecule", "Test H disease control rating"],
 "data": [
  ["O=c1c(-n2cccn2)nc(Cl)c(-c2c(F)cc(F)cc2F)n1Cc1cccc(Br)c1 [compound 344]", "99* %"],
  ["Cc1ccn(-c2nc(Cl)c(-c3c(F)cccc3F)n(-c3ccccc3)c2=O)n1 [compound 278]", "100* %"],
  ["Cc1ccc(-n2c(-c3c(F)cccc3F)c(Cl)nc(-n3cccn3)c2=O)cc1 [compound 333]", "99* %"]
]}

* * *

- System: Puccinia recondita f. sp. tritici
- methodNotes: Test K: wheat leaf rust, preventive spray on wheat seedlings
- studyConditions: 200 ppm
We begin with a simple list: items and their reported Test K disease control rating.

{"columns": ["molecule", "Test K disease control rating"],
 "data": [
  ["O=c1c(N2CCC=N2)nc(Cl)c(-c2c(F)cccc2F)n1CC1CC1 [compound 16]", "68%"],
  ["CC(C)Cn1c(-c2c(F)cccc2F)c(Cl)nc(N2CCC=N2)c1=O [compound 4]", "98%"],
  ["CCC(C)Cn1c(-c2c(F)cc(F)cc2F)c(Cl)nc(-n2cncn2)c1=O (stereo not drawn) [compound 20]", "100%"],
  ["CC(C)Cn1c(-c2ccc(C(F)(F)F)cc2F)c(Cl)nc(-n2cccn2)c1=O [compound 46]", "0%"],
  ["N#Cc1nc(Cl)c(-c2c(F)cccc2F)n(Cc2ccccc2)c1=O [compound 106]", "91%"],
  ["Cn1c(-c2ccccc2F)c(Cl)nc(-n2cccn2)c1=O [compound 14]", "0%"],
  ["O=c1c(-n2cncn2)nc(Cl)c(-c2c(F)cccc2F)n1CC1CC1 [compound 17]", "100%"],
  ["C=C(C)Cn1c(-c2c(F)cccc2F)c(Cl)nc(-n2cccn2)c1=O [compound 30]", "100%"],
  ["CC(C)n1c(-c2c(F)cccc2F)c(Cl)nc(-n2cccn2)c1=O [compound 26]", "100%"]
]}

* * *

Here the recorded Test J disease control rating is given for each entry.
- Test system: Septoria tritici
- methodNotes: Test J: wheat leaf blotch, preventive spray on wheat seedlings
- Assay type: in vivo
- studyConditions: 200 ppm; 100 = 100% disease control, 0 = no control relative to controls
readout: Test J disease control rating (%)

{"columns": ["compound", "readout", "quantitativeReadout"],
 "data": [
  ["CC(C)Cn1c(-c2ccc(F)cc2F)c(F)nc(C(N)=O)c1=N [compound 429]", "Test J disease control rating", 0],
  ["CC(=O)N=c1c(C#N)nc(C)c(-c2ccccc2)n1CC(C)C [compound 431]", "Test J disease control rating", 0],
  ["CCC(C)Cn1c(-c2c(F)cc(F)cc2F)c(Cl)nc(C(=O)NOC)c1=O (stereo not drawn) [compound 417]", "Test J disease control rating", 0],
  ["CCC(C)Cn1c(-c2ccc(F)cc2F)c(C)nc(C(N)=O)c1=N (stereo not drawn) [compound 428]", "Test J disease control rating", 87],
  ["Cc1nc(C(N)=O)c(=N)n(CC(C)C)c1-c1ccc(F)cc1F [compound 427]", "Test J disease control rating", 0],
  ["Cc1nc(C#N)c(=N)n(CC(C)C)c1-c1ccc(F)cc1F [compound 425]", "Test J disease control rating", 3]
]}

* * *

- Test system: Septoria tritici
- methodNotes: Test J: wheat leaf blotch, preventive spray on wheat seedlings
- Format: in vivo
- studyConditions: 200 ppm
readout: Test J disease control rating (%)

{"columns": ["compound", "quantitativeReadout"],
 "data": [
  ["Cc1ccc(-c2c(Cl)nc(-n3cccn3)c(=O)n2CC(C)C)c(C)c1 [compound 80]", 100],
  ["CCC(C)Cn1c(-c2c(F)cccc2F)c(Cl)nc(-n2nc(C)cc2C(F)(F)F)c1=O (stereo not drawn) [compound 64]", 71],
  ["O=c1c(-n2cccn2)nc(Cl)c(-c2c(F)cccc2F)n1CC1CCCCC1 [compound 31]", 100],
  ["CC(C)Cn1c(-c2ccc(F)cc2)c(Cl)nc(-n2cncn2)c1=O [compound 142]", 100],
  ["CC(C)Cn1c(-c2ccc(C#N)cc2)c(Cl)nc(-n2cccn2)c1=O [compound 145]", 100],
  ["CCC(C)Cn1c(-c2c(F)cc(F)cc2F)c(Cl)nc(-n2cccn2)c1=O (stereo not drawn) [compound 19]", 100],
  ["Cc1ccc(-c2c(Cl)nc(-n3cncn3)c(=O)n2CC(C)C)c(C)c1 [compound 79]", 100],
  ["CC(c1ccccc1)n1c(-c2c(F)cccc2F)c(Cl)nc(C#N)c1=O (stereo not drawn) [compound 109]", 0],
  ["COC(=O)C(C)=NNc1nc(Cl)c(-c2c(F)cccc2F)n(CC(C)C)c1=O [compound 78]", 91]
]}

* * *

# maps each entry to its Test K disease control rating
- Tested on: Puccinia recondita f. sp. tritici
- methodNotes: Test K: wheat leaf rust, preventive spray on wheat seedlings
- studyConditions: 200 ppm

{"columns": ["compound", "Test K disease control rating [%]"],
 "data": [
  ["CC(C)Cn1c(-c2ccc(C#N)cc2)c(Cl)nc(-n2cccn2)c1=O", 68],
  ["CC(C)Cn1c(C(C)C)c(Cl)nc(-n2cncn2)c1=O", 0],
  ["CCC(C)Cn1c(-c2c(F)cccc2F)c(Cl)nc(-n2nc(C)cc2C(F)(F)F)c1=O (stereo not drawn)", 97],
  ["CCC(C)Cn1c(-c2c(F)cccc2F)c(Cl)nc(C#N)c1=O (stereo not drawn)", 96],
  ["CC(C)Cn1c(-c2ccccc2F)c(Cl)nc(-n2cncn2)c1=O", 60],
  ["CCC(C)Cn1c(-c2c(F)cccc2F)c(Cl)nc(-n2nccn2)c1=O (stereo not drawn)", 86],
  ["CC(C)Cn1c(-c2ccc(F)cc2)c(Cl)nc(-n2cncn2)c1=O", 27],
  ["CC(C)Cn1c(-c2cccc(Cl)c2Cl)c(Cl)nc(-n2cccn2)c1=O", 83],
  ["CC(C)Cn1c(-c2c(F)cccc2F)c(Cl)nc(-c2nccn2C)c1=O", 0]
]}

* * *

Let's look at some compounds and their measured Test G disease control rating.
- Tested on: Rhizoctonia oryzae
- methodNotes: Test G: turf brown patch, preventive spray on creeping bent grass seedlings
- studyConditions: 40 ppm (*)
Marks after values point to notes of the source that are not given here.
readout: Test G disease control rating

{"columns": ["compound", "studyTarget", "readout", "result"],
 "data": [
  ["CSCC(C)n1c(-c2c(F)cccc2F)c(Cl)nc(-n2cccn2)c1=O (stereo not drawn)", "Rhizoctonia oryzae", "Test G disease control rating", "0* %"],
  ["CCC(C)Cn1c(-c2c(F)cccc2F)c(Cl)nc(-n2cccc2)c1=O (stereo not drawn)", "Rhizoctonia oryzae", "Test G disease control rating", "0* %"],
  ["O=c1c(-n2cncn2)nc(Cl)c(-c2c(F)cccc2F)n1Cc1ccc(Cl)cc1", "Rhizoctonia oryzae", "Test G disease control rating", "0* %"],
  ["CCC(C)Cn1c(-c2ccc(F)cc2Cl)c(Cl)nc(-n2nc(C)cc2C)c1=O (stereo not drawn)", "Rhizoctonia oryzae", "Test G disease control rating", "0* %"],
  ["O=c1c(-n2cncn2)nc(Cl)c(-c2c(F)cccc2F)n1CC1CCCO1 (stereo not drawn)", "Rhizoctonia oryzae", "Test G disease control rating", "0* %"],
  ["CC(C)Cn1c(-c2ccc(Cl)s2)c(Cl)nc(-n2cncn2)c1=O", "Rhizoctonia oryzae", "Test G disease control rating", "0* %"],
  ["CCC(C)Cn1c(-c2c(F)cccc2F)c(Cl)nc(-n2ccnc2C)c1=O (stereo not drawn)", "Rhizoctonia oryzae", "Test G disease control rating", "0* %"],
  ["CC(C)Cn1c(Cc2ccccc2)c(Cl)nc(-n2cncn2)c1=O", "Rhizoctonia oryzae", "Test G disease control rating", "0* %"],
  ["CC(C)Cn1c(-c2cccnc2)c(Cl)nc(-n2cccn2)c1=O", "Rhizoctonia oryzae", "Test G disease control rating", "0* %"],
  ["CCCCn1c(-c2c(F)cc(F)cc2F)c(Cl)nc(-n2ccc(C)n2)c1=O", "Rhizoctonia oryzae", "Test G disease control rating", "99* %"],
  ["O=c1c(-n2cccn2)nc(Cl)c(-c2c(F)cccc2F)n1Cc1ccc(Cl)cc1", "Rhizoctonia oryzae", "Test G disease control rating", "16* %"],
  ["CC(C)Cn1c(-c2ccccc2)c(Cl)nc(-n2cncn2)c1=O", "Rhizoctonia oryzae", "Test G disease control rating", "0* %"],
  ["CC(C)Cn1c(-c2ccc(Cl)o2)c(Cl)nc(-n2cccn2)c1=O", "Rhizoctonia oryzae", "Test G disease control rating", "0* %"],
  ["CCC(C)Cn1c(-c2c(F)cccc2F)c(Cl)nc(-n2cnc(Cl)c2Cl)c1=O (stereo not drawn)", "Rhizoctonia oryzae", "Test G disease control rating", "0* %"],
  ["COCC(C)n1c(-c2c(F)cccc2F)c(Cl)nc(-n2cccn2)c1=O (stereo not drawn)", "Rhizoctonia oryzae", "Test G disease control rating", "70* %"],
  ["Cn1c(-c2c(F)cccc2F)c(Cl)nc(-n2cccn2)c1=O", "Rhizoctonia oryzae", "Test G disease control rating", "0* %"],
  ["CC(C)Cn1c(-c2ccc(OC(F)(F)F)cc2)c(Cl)nc(-n2cncn2)c1=O", "Rhizoctonia oryzae", "Test G disease control rating", "0* %"],
  ["COc1cc(OC)c(-c2c(Cl)nc(-n3cncn3)c(=O)n2CC(C)C)c(OC)c1", "Rhizoctonia oryzae", "Test G disease control rating", "0* %"]
]}
